- Test system: Cocklebur
- Test Protocol: Post-emergence herbicide test
- Assay type: in vivo
- Assay Context: Xanthium strumarium, 11.21 kg/ha, read-out: % plant inhibition (Cobu)
Provide the reported inhibition at 11210 g/ha of each item.
Just the number please, in %, no unit attached.

Q. Return value of inhibition at 11210 g/ha for input Cn1nc(C(F)(F)F)c(Cl)c1-c1ccc(Cl)cc1F , no commentary.
A. 20

Q. # return recorded inhibition at 11210 g/ha for input Cc1cc(-c2nn(C)c(C(F)(F)F)c2Cl)c(F)cc1Cl
A. 70

Q. Consider the compound Cn1nc(-c2cc(S(=O)(=O)Cl)c(Cl)cc2Cl)c(Cl)c1C(F)(F)F . State its measured inhibition at 11210 g/ha.
A. 100

Q. State its inhibition at 11210 g/ha: Cn1nc(-c2ccc(Cl)cc2)c(Cl)c1C(F)(F)F
A. 0

Q. Quick one: give measured inhibition at 11210 g/ha for Cn1nc(C(F)(F)F)c(Cl)c1-c1ccc([N+](=O)[O-])cc1
A. 40

The measurements presented in this section are drawn from patent US5530126A.
